# experimental.system: BRD4 short isoform (Homo sapiens)
# Construct: endogenous in cells; host or cells: MDA-MB-468
# experiment.notes: BRD4 degradation assay (Western blot, MDA-MB-468 cells), short isoform
# Format: cell-based
# run.conditions: 24 h, 0.1 μM, MDA-MB-468, n = 2
endpoint.label: % Mean Degradation of BRD4 (%)

Some molecules with known % Mean Degradation of BRD4 results, for comparison:
* CNC(=O)[C@@]1(C)CCCC[C@H]1C(=O)N1CCc2c(Cl)ccc(OCc3nnn(CCNC(=O)CNC(=O)C[C@@H]4N=C(c5ccc(Cl)cc5)c5c(sc(C)c5C)-n5c(C)nnc54)c3C)c2[C@H]1CN1CC2(CC2)CC1=O [Example 2] | 84
* Cc1sc2c(c1C)C(c1ccc(Cl)cc1)=N[C@@H](CC(=O)NCCC(=O)NCCOCc1c(COc3ccc(Cl)c4c3[C@@H](CN3CC5(CC5)CC3=O)N(C(=O)[C@@H]3CCCC[C@]3(C)C(=O)O)CC4)nnn1C)c1nnc(C)n1-2 [Example 4] | 18

[a] Cc1sc2c(c1C)C(c1ccc(Cl)cc1)=N[C@@H](CC(=O)NCC(=O)NCCOCC(=O)N1CC[C@H](Oc3ccc(Cl)c4c3[C@@H](CN3CC5(CC5)CC3=O)N(C(=O)[C@@H]3CCCC[C@]3(C)C(=O)O)CC4)C1)c1nnc(C)n1-2 [Example 6]
[b] Cc1sc2c(c1C)C(c1ccc(Cl)cc1)=N[C@@H](CC(=O)NCC(=O)NCCn1nnc(COc3ccc(Cl)c4c3[C@@H](CN3CC5(CC5)CC3=O)N(C(=O)[C@@H]3CCCC[C@]3(C)C(=O)O)CC4)c1C)c1nnc(C)n1-2 [Example 1]
[c] Cc1sc2c(c1C)C(c1ccc(Cl)cc1)=N[C@@H](CC(=O)NCCOCCNC(=O)[C@@]1(C)CCCC[C@H]1C(=O)N1CCc3c(Cl)ccc(OCc4nnn(C)c4C)c3[C@H]1CN1CC3(CC3)CC1=O)c1nnc(C)n1-2 [Comparative Example 2, reference compound]
Parameters: sort_field (% Mean Degradation of BRD4), sort_dir (desc). Returns: the labels arranged in the requested order.
b, a, c
